# studyTarget: Aurora kinase B (Homo sapiens, UniProt Q96GD4)
# Sequence (Q96GD4 whole entry): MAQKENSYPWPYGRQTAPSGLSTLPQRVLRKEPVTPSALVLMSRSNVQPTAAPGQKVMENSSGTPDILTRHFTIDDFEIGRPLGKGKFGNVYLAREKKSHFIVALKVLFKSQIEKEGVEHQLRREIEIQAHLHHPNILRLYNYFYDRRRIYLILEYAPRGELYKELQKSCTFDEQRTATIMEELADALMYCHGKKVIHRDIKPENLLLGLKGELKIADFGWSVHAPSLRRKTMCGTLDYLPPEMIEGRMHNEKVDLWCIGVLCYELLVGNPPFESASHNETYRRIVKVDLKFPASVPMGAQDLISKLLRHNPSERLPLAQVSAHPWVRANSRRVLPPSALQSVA
# testDescription: Inhibition of Aurora B (unknown origin) at 100 nM by Z-LYTE assay relative to control
observedProperty: inhibition (%)

Use these answered entries as a reference point.
[[record]]
structurestring = "O=C1Nc2cc(-c3ccc(NS(=O)(=O)c4cccc(Br)c4)cc3)ccc2/C1=C/c1ccc[nH]1"
observedresult = 38

[[record]]
structurestring = "O=C1Nc2cc(-c3ccc(NS(=O)(=O)c4ccc([N+](=O)[O-])cc4)cc3)ccc2/C1=C/c1ccc[nH]1"
observedresult = 49

[[record]]
structurestring = "O=C1Nc2cc(-c3ccc(NS(=O)(=O)c4cccc(Cl)c4)cc3)ccc2/C1=C/c1ccc[nH]1"
observedresult = 43

[[record]]
structurestring = "O=C1Nc2cc(-c3ccc(NS(=O)(=O)c4ccc(Br)cc4)cc3)ccc2/C1=C/c1ccc[nH]1"
observedresult = 32

[[record]]
structurestring = "O=C1Nc2cc(-c3ccc(NS(=O)(=O)c4ccc5ccccc5c4)cc3)ccc2/C1=C/c1ccc[nH]1"
observedresult = 20

[[record]]
structurestring = "CC(=O)Nc1ccc(S(=O)(=O)Nc2ccc(-c3ccc4c(c3)NC(=O)/C4=C\\c3ccc[nH]3)cc2)cc1"
observedresult = 46

[[record]]
structurestring = "Cc1ccc(S(=O)(=O)Nc2ccc(-c3ccc4c(c3)NC(=O)/C4=C\\c3ccc[nH]3)cc2)cc1"
observedresult = 23

[[record]]
structurestring = "O=C1Nc2cc(-c3ccc(NS(=O)(=O)c4ccc(-c5ccccc5)cc4)cc3)ccc2/C1=C/c1ccc[nH]1"
observedresult = 20


(A) CCN(CC)CCNC(=O)c1c(C)[nH]c(/C=C2\C(=O)Nc3cc(-c4ccc(NS(=O)(=O)c5ccc(F)c(Cl)c5)cc4)ccc32)c1C
(B) O=C1Nc2cc(-c3ccc(NS(=O)(=O)c4ccc(C(F)(F)F)cc4)cc3)ccc2/C1=C/c1ccc[nH]1
(C) COc1ccc(S(=O)(=O)Nc2ccc(-c3ccc4c(c3)NC(=O)/C4=C\c3ccc[nH]3)cc2)cc1OC
(D) Cc1[nH]c(/C=C2\C(=O)Nc3cc(-c4ccc(NS(=O)(=O)c5ccc(F)c(Cl)c5)cc4)ccc32)c(C)c1NS(C)(=O)=O
Prompt: # desc sort on inhibition across 4 compounds The labels, placed in the requested order, form the answer.
Completion: A, D, C, B
